Listing of recorded inhibition at 1 µM by entry.
Molecular target: N-type Ca2+ channels in IMR-32 cells (Homo sapiens, UniProt Q00975)
Construct: host or cells: IMR-32 cells, differentiated with dibutyryl cAMP and bromodeoxyuridine
Sequence (Q00975 whole entry): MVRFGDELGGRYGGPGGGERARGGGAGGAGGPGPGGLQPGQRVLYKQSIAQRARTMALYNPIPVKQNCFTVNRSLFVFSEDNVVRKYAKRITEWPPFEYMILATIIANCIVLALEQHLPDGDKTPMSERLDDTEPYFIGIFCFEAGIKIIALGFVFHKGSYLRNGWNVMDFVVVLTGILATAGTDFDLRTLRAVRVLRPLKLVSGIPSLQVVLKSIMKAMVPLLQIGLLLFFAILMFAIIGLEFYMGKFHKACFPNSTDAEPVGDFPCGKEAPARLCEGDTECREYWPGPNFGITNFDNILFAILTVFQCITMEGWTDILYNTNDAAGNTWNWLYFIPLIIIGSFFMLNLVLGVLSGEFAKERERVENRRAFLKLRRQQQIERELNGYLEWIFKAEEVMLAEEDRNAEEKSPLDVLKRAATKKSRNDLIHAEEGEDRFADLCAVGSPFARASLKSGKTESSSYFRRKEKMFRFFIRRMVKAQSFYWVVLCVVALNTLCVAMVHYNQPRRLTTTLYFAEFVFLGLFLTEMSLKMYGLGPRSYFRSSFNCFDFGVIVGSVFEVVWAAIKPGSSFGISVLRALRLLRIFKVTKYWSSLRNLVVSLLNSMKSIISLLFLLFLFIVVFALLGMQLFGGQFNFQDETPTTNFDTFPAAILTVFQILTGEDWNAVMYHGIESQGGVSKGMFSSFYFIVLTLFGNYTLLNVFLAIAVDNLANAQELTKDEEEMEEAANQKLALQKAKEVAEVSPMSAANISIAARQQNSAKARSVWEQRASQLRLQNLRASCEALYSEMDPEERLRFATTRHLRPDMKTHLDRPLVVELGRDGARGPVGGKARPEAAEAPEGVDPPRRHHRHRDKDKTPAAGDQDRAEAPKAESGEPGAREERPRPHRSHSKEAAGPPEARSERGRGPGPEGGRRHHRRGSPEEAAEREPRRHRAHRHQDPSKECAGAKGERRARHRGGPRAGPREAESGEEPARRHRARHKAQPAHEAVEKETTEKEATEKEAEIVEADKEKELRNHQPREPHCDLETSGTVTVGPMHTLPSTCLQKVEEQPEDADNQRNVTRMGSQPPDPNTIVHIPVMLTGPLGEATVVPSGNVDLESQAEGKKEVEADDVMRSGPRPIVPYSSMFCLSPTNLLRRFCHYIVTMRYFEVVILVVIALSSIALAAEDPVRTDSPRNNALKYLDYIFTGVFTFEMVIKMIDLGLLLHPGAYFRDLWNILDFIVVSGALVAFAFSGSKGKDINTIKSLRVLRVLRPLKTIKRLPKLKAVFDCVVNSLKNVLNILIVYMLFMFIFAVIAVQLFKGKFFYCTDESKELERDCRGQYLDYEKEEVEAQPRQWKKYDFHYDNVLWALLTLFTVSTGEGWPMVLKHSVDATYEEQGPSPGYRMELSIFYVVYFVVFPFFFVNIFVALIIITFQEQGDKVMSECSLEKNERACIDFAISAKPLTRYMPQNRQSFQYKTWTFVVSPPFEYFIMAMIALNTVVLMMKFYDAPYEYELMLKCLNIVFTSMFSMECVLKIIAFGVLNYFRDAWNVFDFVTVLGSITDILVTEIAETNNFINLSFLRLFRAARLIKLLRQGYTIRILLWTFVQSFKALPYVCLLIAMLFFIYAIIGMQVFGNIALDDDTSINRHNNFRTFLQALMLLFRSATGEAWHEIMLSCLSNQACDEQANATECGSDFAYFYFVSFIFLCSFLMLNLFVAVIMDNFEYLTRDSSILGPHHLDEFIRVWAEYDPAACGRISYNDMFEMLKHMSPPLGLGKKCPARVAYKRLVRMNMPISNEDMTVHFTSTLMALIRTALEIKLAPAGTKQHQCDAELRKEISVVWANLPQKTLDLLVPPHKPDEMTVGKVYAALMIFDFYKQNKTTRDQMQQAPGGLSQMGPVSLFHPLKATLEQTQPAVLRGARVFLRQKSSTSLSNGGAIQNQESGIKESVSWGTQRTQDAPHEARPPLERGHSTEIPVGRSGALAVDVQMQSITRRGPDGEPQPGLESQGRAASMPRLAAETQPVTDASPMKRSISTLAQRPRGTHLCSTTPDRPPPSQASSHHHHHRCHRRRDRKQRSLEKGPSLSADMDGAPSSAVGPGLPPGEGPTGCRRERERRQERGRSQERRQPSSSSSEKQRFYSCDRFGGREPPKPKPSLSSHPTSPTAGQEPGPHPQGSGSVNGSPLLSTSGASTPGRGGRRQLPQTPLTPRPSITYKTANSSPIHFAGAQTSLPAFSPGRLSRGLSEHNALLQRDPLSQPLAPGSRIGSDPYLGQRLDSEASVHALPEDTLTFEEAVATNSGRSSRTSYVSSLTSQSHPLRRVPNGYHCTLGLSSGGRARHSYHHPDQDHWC
Sequence (P54289 25-956 partner limits assumed): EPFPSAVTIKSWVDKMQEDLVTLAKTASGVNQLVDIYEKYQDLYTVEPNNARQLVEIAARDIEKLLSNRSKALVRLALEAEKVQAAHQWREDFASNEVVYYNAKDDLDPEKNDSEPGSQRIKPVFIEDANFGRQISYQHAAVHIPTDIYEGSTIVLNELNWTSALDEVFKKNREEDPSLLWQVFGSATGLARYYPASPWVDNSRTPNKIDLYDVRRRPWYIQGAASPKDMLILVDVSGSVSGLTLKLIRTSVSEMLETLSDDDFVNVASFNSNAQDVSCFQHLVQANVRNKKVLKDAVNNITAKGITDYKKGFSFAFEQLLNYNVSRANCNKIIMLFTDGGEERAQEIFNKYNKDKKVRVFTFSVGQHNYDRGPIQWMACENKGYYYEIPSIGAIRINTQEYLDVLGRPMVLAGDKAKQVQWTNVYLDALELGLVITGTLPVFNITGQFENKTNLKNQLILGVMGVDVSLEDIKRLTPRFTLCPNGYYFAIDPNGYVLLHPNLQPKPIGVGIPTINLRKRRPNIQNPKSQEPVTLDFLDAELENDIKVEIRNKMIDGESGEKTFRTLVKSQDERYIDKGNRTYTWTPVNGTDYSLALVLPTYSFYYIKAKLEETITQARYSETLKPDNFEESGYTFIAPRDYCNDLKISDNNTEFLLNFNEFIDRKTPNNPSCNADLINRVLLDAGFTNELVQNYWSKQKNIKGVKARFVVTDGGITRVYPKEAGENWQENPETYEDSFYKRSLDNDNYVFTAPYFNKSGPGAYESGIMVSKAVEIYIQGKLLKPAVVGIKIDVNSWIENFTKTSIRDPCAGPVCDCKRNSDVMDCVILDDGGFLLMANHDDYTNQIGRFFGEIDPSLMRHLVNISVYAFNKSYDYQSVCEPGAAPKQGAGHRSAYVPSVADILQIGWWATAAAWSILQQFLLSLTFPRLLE
Sequence (P54289 957-1103 partner limits assumed): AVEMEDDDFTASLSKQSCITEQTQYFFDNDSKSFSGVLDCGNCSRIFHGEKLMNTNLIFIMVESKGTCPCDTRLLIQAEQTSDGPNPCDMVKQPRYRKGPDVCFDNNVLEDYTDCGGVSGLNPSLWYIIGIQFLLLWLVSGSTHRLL
Sequence (P54284 whole entry partner): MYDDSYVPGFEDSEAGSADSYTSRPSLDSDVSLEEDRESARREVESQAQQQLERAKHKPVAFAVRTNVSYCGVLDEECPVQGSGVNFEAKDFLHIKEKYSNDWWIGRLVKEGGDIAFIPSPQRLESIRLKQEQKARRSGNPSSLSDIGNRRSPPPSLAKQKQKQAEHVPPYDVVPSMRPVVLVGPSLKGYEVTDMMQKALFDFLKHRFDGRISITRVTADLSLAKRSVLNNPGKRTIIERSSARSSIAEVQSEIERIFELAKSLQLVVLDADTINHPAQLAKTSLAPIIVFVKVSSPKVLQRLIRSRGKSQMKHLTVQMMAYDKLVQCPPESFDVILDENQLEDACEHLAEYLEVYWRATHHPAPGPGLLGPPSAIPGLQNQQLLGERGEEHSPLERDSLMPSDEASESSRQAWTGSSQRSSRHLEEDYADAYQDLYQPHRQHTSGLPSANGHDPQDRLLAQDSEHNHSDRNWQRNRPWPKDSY
Assay: Inhibition of N-type calcium flux in IMR-32 cells (Indo-1 fluorescence, nitrendipine present)
Assay type: cell-based
Details: IMR-32
quantity measured: inhibition at 1 µM (%)

structure smiles	quantity measured	value unit	result
CC(C)C[C@H](NC(=O)N1CCCCCC1)C(=O)N[C@@H](Cc1ccc(OCc2ccccc2)cc1)C(=O)NCC1CC1	inhibition at 1 µM	%	37
CC(C)C[C@H](NC(=O)N1CCCCCC1)C(=O)N[C@@H](Cc1ccc(NCc2ccccc2)cc1)C(=O)NC(C)(C)C	inhibition at 1 µM	%	37
CC(=O)c1ccc(NC(=O)[C@H](Cc2ccc(OCc3ccccc3)cc2)NC(=O)[C@H](CC(C)C)NC(=O)N2CCCCCC2)cc1	inhibition at 1 µM	%	34
CC(C)C[C@H](NC(=O)N1CCCCCC1)C(=O)N[C@@H](Cc1ccc(OCc2ccccc2)cc1)C(=O)NCC1CCCCC1	inhibition at 1 µM	%	36
